# System: human erythrocytes (RBC's)
# experiment-description: Hemolysis assay, 50% lysis of RBC's
# Type: cell-based
readout-label: HD50 (µM)

molecule | measurement-target | output-unit | observed-result
CC(C)[C@@H](CC(N)=O)NC(=O)C[C@H](CCCCN)NC(=O)C[C@H](C)NC(=O)C[C@@H](NC(=O)C[C@H](CCCCN)NC(=O)C[C@H](C)NC(=O)C[C@@H](NC(=O)C[C@H](CCCCN)NC(=O)C[C@H](C)NC(=O)C[C@@H](NC(=O)C[C@H](CCCCN)NC(=O)C[C@H](C)N)C(C)C)C(C)C)C(C)C [Peptide 1] | human erythrocytes (RBC's) | µM | 670
CC(C)[C@@H](CC(N)=O)NC(=O)C[C@H](CCCCN)NC(=O)C[C@H](C)NC(=O)C[C@@H](NC(=O)C[C@H](CCCCN)NC(=O)C[C@H](C)NC(=O)C[C@@H](NC(=O)C[C@H](CCCCN)NC(=O)C[C@H](C)NC(=O)C[C@@H](NC(=O)C[C@H](CCCCN)NC(=O)C[C@H](C)NC(=O)C[C@@H](NC(=O)C[C@H](CCCCN)NC(=O)C[C@H](C)N)C(C)C)C(C)C)C(C)C)C(C)C [Peptide 2] | human erythrocytes (RBC's) | µM | 240
